TESTED_ON: LdtMt2 (Mycobacterium tuberculosis)
Construct: gene ldtB
ASSAY_NAME: biochemical
APPLIED_CONDITIONS: read-out: kinact/KI LdtMt2
MEASURE: kinact/KI

Example results:
[
  {
    "COMPOUND_STRUCTURE": "COc1ccc(S(=O)(=O)c2ccccc2)nc1",
    "TESTED_ON": "LdtMt2 (Mycobacterium tuberculosis)",
    "kinact/KI": "< 10 M⁻¹ s⁻¹"
  },
  {
    "COMPOUND_STRUCTURE": "O=S(=O)(c1ccccc1)c1ccccn1",
    "TESTED_ON": "LdtMt2 (Mycobacterium tuberculosis)",
    "kinact/KI": "< 10 M⁻¹ s⁻¹"
  },
  {
    "COMPOUND_STRUCTURE": "O=[N+]([O-])c1cccnc1S(=O)(=O)c1ccccc1",
    "TESTED_ON": "LdtMt2 (Mycobacterium tuberculosis)",
    "kinact/KI": "< 10 M⁻¹ s⁻¹"
  },
  {
    "COMPOUND_STRUCTURE": "O=[N+]([O-])c1ccc(S(=O)(=O)c2ccccc2)nc1",
    "TESTED_ON": "LdtMt2 (Mycobacterium tuberculosis)",
    "kinact/KI": "52.6 M⁻¹ s⁻¹"
  }
]

Now take the following compound into account.
Given the entry N#Cc1ccc(S(=O)(=O)c2ccccc2)nc1 , report its measured kinact/KI.
< 10 M⁻¹ s⁻¹

====

TESTED_ON: Mtb PBP3 Δ1-122 (Mycobacterium tuberculosis, UniProt L0T911)
Construct: gene pbpB; N-terminally truncated (residues 1-122 removed), codon-optimised gene in pCold, E. coli BL21(DE3), His tag cleaved with 3C protease, calculated mass 60,148 Da, observed 60,152 Da
Sequence (L0T911 whole entry, looked up, stated change not applied, the tested form may be a part): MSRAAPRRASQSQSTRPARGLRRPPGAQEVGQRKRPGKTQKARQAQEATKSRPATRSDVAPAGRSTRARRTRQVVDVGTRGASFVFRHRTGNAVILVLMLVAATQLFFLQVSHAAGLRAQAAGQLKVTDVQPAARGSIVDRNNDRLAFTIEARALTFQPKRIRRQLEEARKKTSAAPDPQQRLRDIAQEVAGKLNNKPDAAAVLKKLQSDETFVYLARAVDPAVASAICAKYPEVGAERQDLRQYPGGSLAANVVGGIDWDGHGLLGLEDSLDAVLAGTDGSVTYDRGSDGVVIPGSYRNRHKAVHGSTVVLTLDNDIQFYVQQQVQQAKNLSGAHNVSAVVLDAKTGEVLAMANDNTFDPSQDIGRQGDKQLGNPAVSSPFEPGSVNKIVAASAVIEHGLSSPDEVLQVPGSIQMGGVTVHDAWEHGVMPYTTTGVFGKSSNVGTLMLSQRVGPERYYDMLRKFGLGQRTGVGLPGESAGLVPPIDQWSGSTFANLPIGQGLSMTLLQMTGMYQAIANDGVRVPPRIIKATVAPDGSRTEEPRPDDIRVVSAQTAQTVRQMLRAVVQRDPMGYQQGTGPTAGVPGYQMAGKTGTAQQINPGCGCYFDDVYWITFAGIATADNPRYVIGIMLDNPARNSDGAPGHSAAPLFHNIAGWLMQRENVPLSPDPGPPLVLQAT
ASSAY_NAME: biochemical
Format: biochemical
pIC50 for assorted compounds

Example results:
[
  {
    "COMPOUND": "CCC(C)[C@H](NC(=O)OCc1ccccc1)C(=O)CCl (stereo partly shown)",
    "TESTED_ON": "Mtb PBP3 Δ1-122 (Mycobacterium tuberculosis, UniProt L0T911)",
    "MEASURE": "pIC50",
    "REPORTED": "< 3.4"
  },
  {
    "COMPOUND": "NC(=O)OCC1=C(C(=O)O)N2C(=O)C(NC(=O)C(=CS(=O)(=O)CCc3ccc(O)c(O)c3)c3csc(N)n3)C2SC1 (stereo not shown)",
    "TESTED_ON": "Mtb PBP3 Δ1-122 (Mycobacterium tuberculosis, UniProt L0T911)",
    "MEASURE": "pIC50",
    "REPORTED": "6.1 ± 0.089"
  },
  {
    "COMPOUND": "COc1cccc(NC(=O)C(Cl)=C(Cl)S(=O)(=O)Cc2ccccc2Cl)n1",
    "TESTED_ON": "Mtb PBP3 Δ1-122 (Mycobacterium tuberculosis, UniProt L0T911)",
    "MEASURE": "pIC50",
    "REPORTED": "< 3.4"
  }
]

Now take the following compound into account.
Given the entry O=C(C1OC1c1ccccc1)C1OC1c1ccccc1 (stereo not shown) , report its measured pIC50.
< 3.4

====

TESTED_ON: LdtMt2 (Mycobacterium tuberculosis, UniProt I6Y9J2)
Construct: gene ldtB
Sequence (I6Y9J2 35-408): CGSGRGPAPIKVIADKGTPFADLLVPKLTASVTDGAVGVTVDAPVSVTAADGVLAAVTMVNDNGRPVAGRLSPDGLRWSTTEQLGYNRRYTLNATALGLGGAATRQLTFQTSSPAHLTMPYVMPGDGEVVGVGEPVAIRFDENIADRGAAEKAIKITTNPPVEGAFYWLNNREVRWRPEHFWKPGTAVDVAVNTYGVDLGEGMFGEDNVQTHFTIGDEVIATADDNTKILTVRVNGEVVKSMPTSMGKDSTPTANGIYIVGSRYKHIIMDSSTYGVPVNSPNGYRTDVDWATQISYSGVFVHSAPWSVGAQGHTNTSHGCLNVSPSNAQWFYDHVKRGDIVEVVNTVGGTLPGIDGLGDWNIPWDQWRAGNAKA
ASSAY_NAME: biochemical
APPLIED_CONDITIONS: read-out: kinact/KI LdtMt2
MEASURE: kinact/KI

[
  {
    "COMPOUND_STRUCTURE": "O=[N+]([O-])c1ccc(S(=O)(=O)c2ncc(C(F)(F)F)cc2Cl)cc1",
    "TESTED_ON": "LdtMt2 (Mycobacterium tuberculosis, UniProt I6Y9J2)",
    "REPORTED": "< 10 M⁻¹ s⁻¹"
  }
]

Given the entry O=[N+]([O-])c1ccc(S(=O)(=O)c2ccccc2)cn1 , report its measured kinact/KI.
< 10 M⁻¹ s⁻¹

# repeat for O=[N+]([O-])c1ccc(S(=O)(=O)c2ccc(Cl)cc2)nc1
86.9 M⁻¹ s⁻¹
